Measured IC50, listed per entry.
tested on: Micrococcus luteus; test: Antibiofilm activity against Micrococcus luteus MTCC 2470 after 24 hrs by crystal violet staining based assay; assay type: functional, organism-based; settings: MTCC 2470, 24 h
Numbers only here, please. The scale is µM.

Examples with their reported IC50 follow.
- O=C1C=C(N2CC2)C(=O)C(c2cc(-c3ccc(C(=O)N4CCC(C(F)(F)F)CC4)s3)on2)=C1N1CC1: 16.2
- CCCN(C)C(=O)c1ccc(-c2cc(C3=C(N4CC4)C(=O)C=C(N4CC4)C3=O)no2)s1: 8.9
- CO[C@@]12[C@H](COC(N)=O)C3=C(C(=O)C(C)=C(N)C3=O)N1C[C@@H]1N[C@@H]12: 0.9
- O=C(O)c1cn(C2CC2)c2cc(N3CCNCC3)c(F)cc2c1=O: 0.8
- O=C1C=C(N2CC2)C(=O)C(c2cc(-c3ccc(C(=O)N4CCOCC4)s3)on2)=C1N1CC1: 9.8
- CN(C)C(=O)c1ccc(-c2cc(C3=C(N4CC4)C(=O)C=C(N4CC4)C3=O)no2)s1: 38.9

Consider the record given below.
IC50 measured on O=C1C=C(N2CC2)C(=O)C(c2cc(-c3ccc(C(=O)N4CCCCC4)s3)on2)=C1N1CC1 = 35.6
